- System: EKVX NSCLC
- Assay explanation: NCI tumour cell line growth inhibition, 48 h; in the data active means GI50 below about 0.43 µM; inactive means the rest
Returns: one label drawn from active, inactive

Example cases with answers are listed next.
Problem: Name the outcome recorded for COc1cc(-c2ccc3c(c2)NC(=O)/C3=C\c2ccc[nH]2)ccc1O in the assay.
Result: active

Problem: Then what about the compound CC(=O)[O-].CCN(CC)c1ccc(C=NCCN=Cc2ccc(N(CC)CC)cc2[O-])c([O-])c1.[Mn+3] ?
Result: inactive

Problem: // query: COc1cc(/C=C/c2cc(/C=C/c3ccc(O)c(OC)c3)n(C(=O)Nc3ccc(F)c(Cl)c3)n2)ccc1O
Result: inactive

Problem: Same again, this time with COc1cc2c3c(n(CCCNC(=O)OCC4c5ccccc5-c5ccccc54)c(=O)c2cc1OC)-c1cc2c(cc1/C3=C\CCNC(=O)OCC1c3ccccc3-c3ccccc31)OCO2
Result: inactive

***
Problem: GET /call?item= NS(=O)(=O)c1ccc(N=Nc2c(O)[nH]c3ccc(-c4cnco4)cc23)cc1 returns the recorded outcome of this test.
Result: inactive

Problem: Query O=C(N/N=C/c1ccc(Cl)cc1)c1ccc(C(F)(F)F)nc1Nc1cccc(C(F)(F)F)c1 next
Result: inactive

Problem: Then this compound: CCC[CH2][Sn]1([CH2]CCC)[O]CC(CN2CCCC2)[O]1 (stereo not given)
Result: inactive

Problem: What do you get for COC1=CC(=O)c2nc(-c3cccc(C)n3)[nH]c2C1=O ?
Result: inactive

Problem: Now give it for N=C1C(c2nc3ccccc3s2)=C(O)CN1c1cc(C(F)(F)F)ccc1Cl too.
Result: inactive

Problem: Now give it for CN(C)C(=O)c1cc2cnc(Nc3ccc(-c4csc5c(=S)cc(N6CCOCC6)oc45)cc3)nc2n1C1CCCC1 too.
Result: inactive

----------
Form field: log10(TGI) (one value per entry).
- Test system: U251 CNS
- Assay explanation: NCI tumour cell line growth inhibition, 48 h
For clarity, the numbers are log10 values of TGI expressed in µM.

Take a look at these entries with their results.
Problem: log10(TGI) lookup needed for COC1=CC(=O)c2nc(-c3cccc(C)n3)[nH]c2C1=O , thanks.
Result: 1.62

Problem: Try CN1C/C=C\CCOc2cccc(c2)-c2ccnc(n2)Nc2cccc(c2)C1 next.
Result: -0.17

Problem: Also need N#CC(NNC(=O)Cc1ccccc1)c1c(O)ccc2ccccc12 (stereo not given) , thanks.
Result: 1.65

Problem: Next: COC(=O)[C@@H](C)CNS(=O)(=O)N(c1cc(C(F)(F)F)cc(C(F)(F)F)c1)C1CCN(Cc2ccc(F)cc2)CC1
Result: 1.45

As a next step, examine the compound that follows.
Problem: May I ask what log10(TGI) has been recorded for COc1cc2c(c(OC)c1OC)-c1ccc(OC)c(=O)cc1[C@@H](NC(=O)c1ccccc1)CC2 ?
Result: 0.61

----------
- Tested on: MCF7 breast
- Assay explanation: NCI tumour cell line growth inhibition, 48 h
Measured TGI, listed per entry for reference.
Quick note: give the figure in µM, leave out the unit.

Would you please look over these solved cases?
Problem: Enter reported TGI observed with MCF7 breast for CC(C)(C)c1cc(Br)c(O)c(CN(Cc2cc(C(C)(C)C)cc(Br)c2O)C2CCCCC2)c1
Result: 26.8

Problem: O=Cc1ccc2c(c1)CC1(Cc3ccccc3C1)C2 , same question.
Result: 66.4

Next compound, please.
Problem: Notebook: pull reported TGI for MCF7 breast, entry COC1=C(OC)C(=O)C(Cc2c(C)nc3sc(C)cn23)=C(C)C1=O
Result: 59.9

----------
- System: UO-31 renal
- Assay explanation: NCI tumour cell line growth inhibition, 48 h
Consider the following molecules and their measured TGI readings.

Problem: Recorded TGI for CCOC(=O)c1c(C)n(Cc2ccc(Cl)cc2Cl)c2c1c(CN(C)C)c(O)c1[nH]cnc12 , please?
Result: 36.5 µM

Problem: Also need CC(C)(C)c1cc(C(C)(C)C)cc(S(=O)(=O)Nc2cc3ccccc3cc2C(=O)NCCN)c1 , thanks.
Result: 2.98 µM

---
Problem: Entry NP(=O)(Oc1c2occc2cc2ccc(=O)oc12)N(CCCl)CCCl (stereo not given) has what TGI?
Result: > 100 µM

Problem: Now consider COc1ccc(C2OC[C@H]3O[C@@H](OCc4ccccc4)[C@H](O)[C@@H](O)[C@@H]3O2)cc1 (stereo not given in full) .
Result: > 100 µM

Problem: What about CN1c2ccc(Cl)cc2C(=O)NC1c1ccc([N+](=O)[O-])s1 (stereo not given) ?
Result: 26.5 µM

Problem: Field entry: CCOC(=O)/C=C(/C(=O)OCC)n1ccc(=O)n(Cc2cn(COCCOC(C)=O)nn2)c1=O
Result: 31.9 µM

Problem: Try the molecule C=CC(CCc1ccc(C(=O)OCC)cc1)c1c(N)nc(N)[nH]c1=O (stereo not given)
Result: > 100 µM

----------
// reported GI50 for each item listed
- System: SK-MEL-28 melanoma
- Assay explanation: NCI tumour cell line growth inhibition, 48 h

# example entries with known answers
Problem: So what GI50 did NS(=O)(=O)c1ccc(N=Nc2c(O)[nH]c3ccc(-c4cnco4)cc23)cc1 get with SK-MEL-28 melanoma?
Result: > 25000 nM

Problem: And CNc1ccc(C(=O)CC(O)CCC(C)C2OC(=O)CC(O)CC(=O)CC(O)CC(O)CC(O)CC(O)CC3(O)CC(O)C(C(=O)OC)C(CC(O[C@@H]4O[C@H](C)[C@@H](O)[C@H](N)[C@@H]4O)/C=C/C=C/C=C/C=C/C=C/C=C/C=C/C2C)O3)cc1 (stereo partly drawn) ?
Result: 1120 nM

Problem: Also check CC(=O)/C(C)=N/NC(=O)c1ccccc1O
Result: > 100000 nM

Problem: What do you have for COc1ccc(Nc2c3ccccc3nc3occc23)cc1 ?
Result: 3060 nM

Problem: Okay, and O=C(N/N=C/c1ccc(Cl)cc1)c1ccc(C(F)(F)F)nc1Nc1cccc(C(F)(F)F)c1 ?
Result: 2540 nM

Further cases:
Problem: Param readout= GI50; system= SK-MEL-28 melanoma; entry= COc1cccc2c1C(=O)c1c(O)c3c(c(O)c1C2=O)C[C@@](O)(C(C)=O)C[C@@H]3OC1OC(C)C(O)C(N)C1Br (stereo partly drawn) ; returns value.
Result: 220 nM

Problem: Next compound: N=C1C(c2nc3ccccc3s2)=C(O)CN1c1cc(C(F)(F)F)ccc1Cl
Result: 69000 nM

Problem: Can you handle CC(C)(C)c1cc(C(C)(C)C)cc(S(=O)(=O)Nc2cc3ccccc3cc2C(=O)NCCN)c1 next?
Result: 1870 nM

----------
- System: DLD-1 colon
- Assay explanation: NCI tumour cell line growth inhibition, 48 h
Metric: TGI

A selection of reference data follows.
Problem: I have this compound here, CS/C(N)=N\NC(=O)CCC(=O)Nc1ccccc1C(F)(F)F , and I need its recorded TGI.
Result: > 100 µM

Problem: Please give the result for CCOC(=O)C1=C(C)N(NC(=O)Nc2ccccc2)C(=O)C1=P(c1ccccc1)(c1ccccc1)c1ccccc1 too.
Result: > 100 µM

Problem: Now the same for CC(=O)/C(C)=N/NC(=O)c1ccccc1O
Result: > 10 µM

Problem: Lookup CC(=O)[O-].CCN(CC)c1ccc(C=NCCN=Cc2ccc(N(CC)CC)cc2[O-])c([O-])c1.[Mn+3]
Result: > 100 µM

Now for the compound whose TGI we want.
Problem: Report TGI for O=P(Nc1ccc(Cl)cc1)(Oc1ccccc1)N(CCCl)CCCl (stereo not given) please.
Result: > 100 µM

----------
Collected TGI values appear next to each entry.
- System: U251 CNS
- Assay explanation: NCI tumour cell line growth inhibition, 48 h
Express your answer in µM, writing the number without its unit.

Problem: Given Cc1c(S(=O)(=O)/N=C(\NO)Nc2ccc(Cl)c(Cl)c2)sc2ccc(Cl)cc12 , state its recorded TGI.
Result: 49.9

Turning now to a further record.
Problem: Endpoint output: TGI of C[C@@]12CC=C3c4nc(Nc5cccc(O)c5)sc4CC[C@]3(C)[C@H]1CC[C@]1(C)C(=O)CC[C@@H]21 . Value?
Result: 16.9

----------
- Test system: DU-145 prostate
- Assay explanation: NCI tumour cell line growth inhibition, 48 h; in the data active = GI50 below about 0.43 µM; inactive = the rest
Lab note: assign the record to one of active, inactive

Please review the following examples before continuing.
Problem: Record lookup: outcome of this test for O=C1OC(C(O)CO)C(=O)C1=O (stereo not drawn) ?
Result: inactive

Problem: Query CN1C/C=C\CCOc2cccc(c2)-c2ccnc(n2)Nc2cccc(c2)C1 next
Result: active

Problem: Now try CN(C)C(=O)c1cc2cnc(Nc3ccc(-c4csc5c(=S)cc(N6CCOCC6)oc45)cc3)nc2n1C1CCCC1 .
Result: inactive

Problem: Also Cc1ccc(C(=O)CN(/C=C/C(=O)C(F)(F)F)c2ccc(S(N)(=O)=O)cc2)cc1 ?
Result: inactive

Problem: Okay, and COc1ccc(Nc2c3ccccc3nc3occc23)cc1 ?
Result: inactive

Problem: Item: COC(=O)[C@H](C)NC(=O)NC(=O)NC(=O)CI
Result: inactive

***
Problem: Hi, do you know how CCOC(=O)c1c(C)n(Cc2ccc(Cl)cc2Cl)c2c1c(CN(C)C)c(O)c1[nH]cnc12 came out in this test?
Result: inactive

Problem: How about COC1=CC(=O)c2nc(-c3cccc(C)n3)[nH]c2C1=O ?
Result: inactive

Problem: And what about the molecule O=C(N/N=C/c1ccc(Cl)cc1)c1ccc(C(F)(F)F)nc1Nc1cccc(C(F)(F)F)c1 ?
Result: inactive

Problem: Next entry: C=C1C(=O)O[C@H]2[C@H]1CC/C(COC(=O)C(=O)c1cn(Cc3ccccc3)c3ccccc13)=C\CC[C@@]1(C)O[C@@H]21
Result: inactive

Problem: Also, N=C1C(c2nc3ccccc3s2)=C(O)CN1c1cc(C(F)(F)F)ccc1Cl please.
Result: inactive

Problem: Next entry: COC(=O)[C@@H](C)CNS(=O)(=O)N(c1cc(C(F)(F)F)cc(C(F)(F)F)c1)C1CCN(Cc2ccc(F)cc2)CC1
Result: inactive

Problem: Similarly, O=C(NC1=CC(=O)c2ccccc2C1=O)c1ccccc1 ?
Result: inactive
